# Lookup of reported minimal inhibitory concentration (M.I.C.) keyed by entry
test system: S. aureus 1840; assay: Minimal inhibitory concentration (M.I.C.), agar dilution method; format: cell-based, Staphylococcus aureus; settings: TSA, inoculum 10^7 /ml
Please give the numeric answer without any surrounding text.

See these solved cases before continuing.
In [3]: df
Out[3]:
                                   molecule  assay_result
0  CNC(=O)O/N=C(\C(=O)NC1C(=O)N2C(C(=O)O)=C(CSc3nnnn3CCO)CSC12)c1csc(=N)[nH]1 (stereo not shown) [Example IV - 4]          3.13
1  CCCNC(=O)O/N=C(\C(=O)NC1C(=O)N2C(C(=O)O)=C(C)CSC12)c1csc(=N)[nH]1 (stereo not shown) [Example II - 15]          12.5
2  CC(=O)OCC1=C(C(=O)O)N2C(=O)C(NC(=O)/C(=N\OC(=O)NC3CCCCC3)c3csc(=N)[nH]3)C2SC1 (stereo not shown) [Example II - 24]          1.56
3  CC(=O)OCC1=C(C(=O)[O-])N2C(=O)C(NC(=O)Cc3cccs3)[C@H]2SC1.[Na+] (stereo partly shown) [Cephalothin, reference compound]          0.39
4  CNC(=O)O/N=C(\C(=O)NC1C(=O)N2C(C(=O)O)=C(CSc3nc(C)ns3)CSC12)c1csc(=N)[nH]1 (stereo not shown) [Example IV - 8]          1.56
5  CNC(=O)O/N=C(\C(=O)NC1C(=O)N2C(C(=O)O)=C(CSc3nnnn3C)CSC12)c1csc(=N)[nH]1 (stereo not shown) [Example II - 4]          1.56

Attention now turns to another entry.
Value of minimal inhibitory concentration (M.I.C.) reported for the molecule CCCCNC(=O)O/N=C(\C(=O)NC1C(=O)N2C(C(=O)O)=C(COC(N)=O)CSC12)c1csc(=N)[nH]1 (stereo not shown) [Example II - 21] is 3.13
